biological target: heteromeric KV7.2/KV7.3 channels (KCNQ2, KCNQ3) (Homo sapiens, UniProt O43525+O43526); test: Automated patch-clamp (Sophion Qube 384) potency assay against KV7.2/KV7.3 channels; conditions: CHO-K1/Kv7.2/Kv7.3 cells; EC50 from concentration-response of shift in Vhalf, 10 concentrations up to 30 μM; read-out: Kv7.2/7.3 EC50
endpoint.label: EC50

Illustrative cases are given below, each with its answer.
- compound: "CC(F)(F)COc1cc(CNC(=O)NCCC2(C(F)(F)F)CC2)ccn1 [Compound 20]"
  EC50: "689 nM"
- compound: "O=C(NCc1ccnc(OCC(F)(F)F)c1)N[C@H]1CCOc2ccccc21 [Compound 132]"
  EC50: "3240 nM"
- compound: "O=C(NCc1ccnc(OCC(F)(F)F)c1)N[C@@H]1CCc2c(Cl)cccc21 [Compound 121]"
  EC50: "1560 nM"
- compound: "COc1ccccc1N1CC[C@@H](NC(=O)NCc2ccnc(OCC(F)(F)F)c2)C1 [Compound 202]"
  EC50: "4340 nM"
- compound: "C[C@H](Oc1cc(CNC(=O)NCCC2(C(F)(F)F)CC2)ccn1)C(F)(F)F [Compound 47]"
  EC50: "254 nM"
- compound: "O=C(NCc1ccnc(OCC(F)(F)F)c1)NC1CCc2ccc(F)cc21 (racemic) [Compound 81]"
  EC50: "310 nM"

Turning to the following compound.
**Query** Any idea what EC50 was measured for O=C(NCc1ccnc(OCC(F)(F)F)c1)NC1CCCCC1 [Compound 43] ?
**Result** 765 nM

* * *

Recorded Kv7.2/7.3 ΔV1/2, one value per entry.
biological target: heteromeric KV7.2/KV7.3 channels (KCNQ2, KCNQ3) (Homo sapiens, UniProt O43525+O43526); construct: expressed in transfected cells; host or cells: CHO-K1; experiment: Automated patch-clamp (Sophion Qube 384) potency assay against KV7.2/KV7.3 channels; assay type: cell-based; conditions: CHO-K1/Kv7.2/Kv7.3 cells; maximal shift in the Vhalf from the top of the curve
Report the figure in mV without appending any unit label.

- molecule: "O=C(NCc1ccnc(OCc2ccccc2)c1)NCC(O)C1(C(F)(F)F)CC1 (racemic) [Compound 5]"
  endpoint.label: "Kv7.2/7.3 ΔV1/2"
  measured.value: 21.49
- molecule: "C[C@@H](Oc1cc(CNC(=O)NCCC2(C(F)(F)F)CC2)ccn1)C(F)(F)F [Compound 51]"
  endpoint.label: "Kv7.2/7.3 ΔV1/2"
  measured.value: 33.62
- molecule: "O=C(NCc1ccnc(OCC(F)(F)F)c1)N[C@H]1CCc2cc(F)c(F)cc21 [Compound 120]"
  endpoint.label: "Kv7.2/7.3 ΔV1/2"
  measured.value: 16.57
- molecule: "O=C(NCc1ccnc(OCC(F)(F)F)c1)Nc1cccc2c1CCC2 [Compound 154]"
  endpoint.label: "Kv7.2/7.3 ΔV1/2"
  measured.value: 24.51
- molecule: "Cc1cccc2c1C(NC(=O)NCc1ccnc(OCC(F)(F)F)c1)CC2 (stereo not shown) [Compound 116]"
  endpoint.label: "Kv7.2/7.3 ΔV1/2"
  measured.value: 31.15

**Query** Any idea what Kv7.2/7.3 ΔV1/2 was measured for O=C(NCc1ccnc(OCC(F)(F)F)c1)N[C@H]1CCCc2ccccc21 [Compound 138] ?
**Result** 17.98

**Query** Any idea what Kv7.2/7.3 ΔV1/2 was measured for O=C(NCc1ccnc(C(F)(F)F)c1)NCC1CCCCC1 [Compound 100] ?
**Result** 24.71

**Query** Any idea what Kv7.2/7.3 ΔV1/2 was measured for O=C(NCc1ccnc(OCC(F)(F)F)c1)NCC1Cc2ccccc2C1 [Compound 145] ?
**Result** 23.71

**Query** Any idea what Kv7.2/7.3 ΔV1/2 was measured for CN(Cc1ccnc(OCC(F)(F)F)c1)C(=O)NCCC1(C(F)(F)F)CC1 [Compound 7] ?
**Result** 22.31

**Query** Any idea what Kv7.2/7.3 ΔV1/2 was measured for O=C(NCc1ccnc(OCC(F)(F)F)c1)Nc1cccc2c1OCCC2 [Compound 140] ?
**Result** 25.85
